Test system: Hs578T cells
assay: Cell viability assay (ATPLite), Hs578T
Type: cell-based, human
condition.notes: Homo sapiens, Hs-578T, 72 h, 72 hour incubation
Structures can show the parent of a compound that is named as a salt.
measured.endpoint: GI50

Worked set:
{"molecule": "Nc1nc(Nc2ccc3c(c2)CC[C@@H](N2CCCC2)CC3)nn1-c1cc2c(nn1)-c1ccccc1CCC2 [Compound R428, reference compound]", "test.result": "3.1 to 10 µM"}
{"molecule": "CN1CCC(Nc2nc(Nc3ccc(OCC4CCCC4)cc3)c3c(=O)[nH]cc(Br)c3n2)CC1 [Compound 235, hydrochloride]", "test.result": "1.1 to 3 µM"}
{"molecule": "CN1CCC(Nc2nc(Nc3ccc(Oc4ccc(F)c(F)c4)cc3)c3c(=O)[nH]cc(Br)c3n2)CC1 [Compound 241, hydrochloride]", "test.result": "3.1 to 10 µM"}
{"molecule": "CCc1nc(C(N)=O)c(Nc2ccc(N3CCC(N4CCN(C)CC4)CC3)c(OC)c2)nc1NC1CCOCC1 [ASP2215, gilteritinib, reference compound]", "test.result": "3.1 to 10 µM"}

Continue with the molecule presented below.
Form field GI50, entry CN1CCC(Nc2nc(Nc3ccc(OC4CCCC4)cc3)c3c(=O)[nH]cc(Br)c3n2)CC1.Cl [Compound 237, hydrochloride] : 0.1 to 1 µM
